# kinase still bound, per cent of control listing for each entry below
- Tgt: SLK (human)
- Procedure Details: KINOMEscan competition binding
- Cond: compound 10.0 µM
State just the number; it will be interpreted in %.

Here are 2 molecules together with their reported answers.
O=C1NC(=O)/C(=C/c2ccc3nccc(-c4ccncc4)c3c2)S1    0.3
CS(=O)(=O)N1CCN(Cc2cc3nc(-c4cccc5[nH]ncc45)nc(N4CCOCC4)c3s2)CC1    100

Record request: kinase still bound, per cent of control value, item CCN1CCN(C(=O)Cc2ccc(Nc3ncc(F)c(Nc4ccc(C(=O)Nc5ccccc5Cl)cc4)n3)cc2)CC1 0.2

And for O=c1cc(N2CCOCC2)oc2c(-c3cccc4c3sc3ccccc34)cccc12 ? 100

Continue with Cc1n[nH]c2ccc(-c3cncc(OC[C@@H](N)Cc4c[nH]c5ccccc45)c3)cc12 100

And then COc1cc2ncnc(-n3nc(-c4ccccn4)nc3N)c2cc1OC , what is it? 28

Also CNC(=O)c1ccc(Nc2cc(Nc3ccccc3S(=O)(=O)C(C)C)c3cc[nH]c3n2)nc1 , if possible. 0

How about this molecule: COCC(=O)NC/C=C/c1ccc2ncnc(Nc3ccc(Oc4ccc(C)nc4)c(C)c3)c2c1 60

Lookup CCN(CC)CCCCNc1ncc2cc(-c3cc(OC)cc(OC)c3)c(NC(=O)NC(C)(C)C)nc2n1 100

* * *

- System: ABL1 (human), P00519 [Y253F]
- Procedure Details: KINOMEscan competition binding
- Cond: compound 10.0 µM
Measurement Name: kinase still bound, per cent of control (%)
Give the value, in units of %, as a plain number.

COc1cc2c(Nc3ccc(NC(=O)c4ccccc4)cc3)ncnc2cc1OCCCN1CCOCC1    35
CC[C@@H]1C(=O)N(C)c2cnc(Nc3ccc(C(=O)NC4CCN(C)CC4)cc3OC)nc2N1C1CCCC1    100
Cn1c(=O)n(-c2ccc(C(C)(C)C#N)cc2)c2c3cc(-c4cnc5ccccc5c4)ccc3ncc21    100
Cc1ccc(C(=O)Nc2cccc(C(F)(F)F)c2)cc1Nc1cncc(C(N)=O)c1    100
CC(=O)c1c(C)c2cnc(Nc3ccc(N4CCNCC4)cn3)nc2n(C2CCCC2)c1=O    59

Given the compound OCCCNc1cc(-c2ccnc(Nc3cccc(Cl)c3)n2)ccn1 , what is its reported kinase still bound, per cent of control? 100

How about CS(=O)(=O)N1CCN(Cc2cc3nc(-c4cccc5[nH]ncc45)nc(N4CCOCC4)c3s2)CC1 ? 100

* * *

Below, each entry is listed alongside its reported kinase still bound, per cent of control.
- Tgt: RPS6KA1 KD1 (human) (UniProt Q15418)
- Sequence (Q15418 whole entry, looked up): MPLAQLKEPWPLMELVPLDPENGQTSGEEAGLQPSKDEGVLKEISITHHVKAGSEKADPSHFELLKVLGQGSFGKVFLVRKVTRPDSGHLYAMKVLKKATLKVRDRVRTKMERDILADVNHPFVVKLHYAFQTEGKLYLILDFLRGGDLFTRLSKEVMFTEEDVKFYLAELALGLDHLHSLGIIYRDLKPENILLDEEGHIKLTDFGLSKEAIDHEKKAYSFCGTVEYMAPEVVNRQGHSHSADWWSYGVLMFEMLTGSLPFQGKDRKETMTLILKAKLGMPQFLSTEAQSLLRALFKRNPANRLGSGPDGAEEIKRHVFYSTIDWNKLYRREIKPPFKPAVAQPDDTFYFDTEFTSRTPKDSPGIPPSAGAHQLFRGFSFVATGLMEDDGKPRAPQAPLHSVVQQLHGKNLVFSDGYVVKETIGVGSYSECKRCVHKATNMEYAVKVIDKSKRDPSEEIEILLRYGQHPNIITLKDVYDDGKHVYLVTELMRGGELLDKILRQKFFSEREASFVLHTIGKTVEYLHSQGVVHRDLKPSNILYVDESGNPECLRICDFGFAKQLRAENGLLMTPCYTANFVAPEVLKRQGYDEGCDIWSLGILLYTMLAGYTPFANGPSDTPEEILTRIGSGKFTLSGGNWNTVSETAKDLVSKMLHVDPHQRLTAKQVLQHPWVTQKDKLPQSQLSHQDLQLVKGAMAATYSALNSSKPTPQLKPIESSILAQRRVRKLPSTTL
- Procedure Details: KINOMEscan competition binding
- Cond: compound 10.0 µM
Answer format: numeric, % implied, no suffix.

C=CC(=O)Nc1ccc(CN(C(=O)Nc2c(Cl)c(OC)cc(OC)c2Cl)c2cc(Nc3ccc(N4CCN(C)CC4)cc3)ncn2)cc1    100

What value of measured kinase still bound, per cent of control is listed for O=c1cc(N2CCOCC2)oc2c(-c3cccc4c3sc3ccccc34)cccc12 ? 100

* * *

- Tgt: RIPK4 (human) (UniProt P57078)
- Sequence (P57078 whole entry, looked up): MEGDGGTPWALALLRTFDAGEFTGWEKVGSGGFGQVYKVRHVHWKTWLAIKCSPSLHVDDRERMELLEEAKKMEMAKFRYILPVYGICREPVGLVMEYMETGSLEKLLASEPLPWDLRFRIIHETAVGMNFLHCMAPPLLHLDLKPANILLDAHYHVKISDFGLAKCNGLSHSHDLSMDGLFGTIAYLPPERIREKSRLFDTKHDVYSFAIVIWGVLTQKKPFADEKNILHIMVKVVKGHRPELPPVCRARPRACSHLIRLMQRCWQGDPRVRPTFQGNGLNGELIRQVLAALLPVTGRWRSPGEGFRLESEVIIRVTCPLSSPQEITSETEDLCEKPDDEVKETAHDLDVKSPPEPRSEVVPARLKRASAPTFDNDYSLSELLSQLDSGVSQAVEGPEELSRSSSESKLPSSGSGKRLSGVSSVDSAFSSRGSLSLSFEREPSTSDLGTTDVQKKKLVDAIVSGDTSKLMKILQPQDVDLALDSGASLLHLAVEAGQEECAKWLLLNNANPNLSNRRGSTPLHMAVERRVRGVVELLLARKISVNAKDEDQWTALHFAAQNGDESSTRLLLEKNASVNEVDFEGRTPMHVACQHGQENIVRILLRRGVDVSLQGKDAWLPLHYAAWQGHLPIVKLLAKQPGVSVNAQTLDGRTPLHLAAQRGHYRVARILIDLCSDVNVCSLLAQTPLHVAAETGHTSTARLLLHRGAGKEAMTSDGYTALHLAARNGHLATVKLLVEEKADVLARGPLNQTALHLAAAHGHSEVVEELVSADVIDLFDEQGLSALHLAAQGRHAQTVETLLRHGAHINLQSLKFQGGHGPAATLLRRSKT
- Procedure Details: KINOMEscan competition binding
- Cond: compound 10.0 µM
Measurement Name: kinase still bound, per cent of control (%)
The reply should be a number in %, with the unit left off.

A selection of reference data follows.
O=c1cc(N2CCOCC2)oc2c(-c3cccc4c3sc3ccccc34)cccc12    100
COc1cc(C(=O)N2CCC(N3CCN(C)CC3)CC2)ccc1Nc1ncc2c(n1)N(C)c1ccccc1C(=O)N2C    74
COCC(=O)NC/C=C/c1ccc2ncnc(Nc3ccc(Oc4ccc(C)nc4)c(C)c3)c2c1    100
NC(=O)Nc1cc(-c2cccc(F)c2)sc1C(=O)N[C@@H]1CCCNC1    0
C=CC(=O)Nc1cc(-n2c(=O)ccc3cnc4ccc(-c5cn[nH]c5)cc4c32)ccc1C    67

GET /values?readout=kinase still bound, per cent of control&item= COc1cc(N2CCN(C)CC2)ccc1Nc1ncc2c(n1)N(C)c1ccccc1C(=O)N2C 100

Also need Cc1n[nH]c2ccc(-c3cncc(OC[C@@H](N)Cc4c[nH]c5ccccc45)c3)cc12 , thanks. 100

Note, next up: COc1cc2ncnc(-n3nc(-c4ccccn4)nc3N)c2cc1OC 12

Lookup N#CCNC(=O)c1ccc(-c2ccnc(Nc3ccc(N4CCOCC4)cc3)n2)cc1 100

Values were extracted from the kinase profiling compilation of Christmann-Franck et al. (2016).
